Hello, the source for this data is patent US20240279221A1, in case you need it.

Target: SOS1:KRAS (G12C) interaction (Homo sapiens (Human), UniProt Q07889)
Sequence (Q07889 564-1049, stated change not applied): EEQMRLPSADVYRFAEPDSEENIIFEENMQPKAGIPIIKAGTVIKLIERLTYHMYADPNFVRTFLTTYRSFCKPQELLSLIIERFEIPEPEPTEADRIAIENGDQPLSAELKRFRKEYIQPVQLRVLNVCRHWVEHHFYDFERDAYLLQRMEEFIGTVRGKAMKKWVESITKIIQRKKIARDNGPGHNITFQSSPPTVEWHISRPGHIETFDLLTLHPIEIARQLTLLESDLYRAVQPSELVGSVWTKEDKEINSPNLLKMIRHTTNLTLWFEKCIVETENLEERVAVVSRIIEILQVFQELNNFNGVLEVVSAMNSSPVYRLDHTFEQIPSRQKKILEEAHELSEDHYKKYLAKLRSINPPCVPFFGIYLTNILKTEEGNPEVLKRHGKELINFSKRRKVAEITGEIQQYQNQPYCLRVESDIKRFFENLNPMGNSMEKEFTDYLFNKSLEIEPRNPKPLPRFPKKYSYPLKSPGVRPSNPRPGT
Assay: SOS1-KRas(G12C) FRET Assay
Details: 0.5 nM His10-SOS1 (res. 564-1049), 2.5 nM GST-KRAS (res. 1-169, G12C); read-out: SOS-KRas(G12C) FRET IC50
Record form. Attribute: IC50. Fill in for each entry.
Express your answer in nM, writing the number without its unit.

Request: IC50, test system SOS1:KRAS (G12C) interaction (Homo sapiens (Human), UniProt Q07889), entry C[C@@H](Nc1nn(C)c(=O)c2cc(=O)n(C3CC3)cc12)c1cccc(C(F)(F)C(C)(C)O)c1F
54.9

# returns recorded IC50 (system: SOS1:KRAS (G12C) interaction (Homo sapiens (Human), UniProt Q07889)) for C[C@@H](Nc1nn(C)c(=O)c2cc(=O)n([C@@H]3C[C@H]3c3cncc(F)c3)cc12)c1cccc(C(F)F)c1F (single isomer, unassigned)
378

# value lookup — system SOS1:KRAS (G12C) interaction (Homo sapiens (Human), UniProt Q07889), readout IC50, item C[C@@H](Nc1nn(C)c(=O)c2cc(=O)n([C@H]3CCOC[C@H]3F)cc12)c1cccc(C(F)F)c1F (single isomer, unassigned)
31.3

What IC50 appears in the records for this compound with SOS1:KRAS (G12C) interaction (Homo sapiens (Human), UniProt Q07889)? C[C@@H](Nc1nn(C)c(=O)c2cc(=O)n(C3(C(F)F)CC3)cc12)c1cccc(C(F)(F)c2ccncc2)c1F
4.4

I'm curious: which IC50 was measured for COC1(C)CN(CCn2nc(N[C@H](C)c3cccc(C(F)(F)F)c3C)c3cn(C4CC4)c(=O)cc3c2=O)C1 tested on SOS1:KRAS (G12C) interaction (Homo sapiens (Human), UniProt Q07889)?
89

Give the reported IC50 for C[C@@H](Nc1nn(C)c(=O)c2cc(=O)n(C3CC3)cc12)c1ccc2c(C#N)nn(C)c2c1 (single isomer, unassigned) (system: SOS1:KRAS (G12C) interaction (Homo sapiens (Human), UniProt Q07889)).
3860

Param readout = IC50; param system = SOS1:KRAS (G12C) interaction (Homo sapiens (Human), UniProt Q07889); param query = C[C@@H](Nc1nn(C)c(=O)c2cc(=O)n([C@@H]3CC34CC4)cc12)c1cccc(C(F)F)c1F (single isomer, unassigned) ; response: value
287

Provide value of IC50 for this record tested with SOS1:KRAS (G12C) interaction (Homo sapiens (Human), UniProt Q07889): Cc1c([C@@H](C)Nc2nn(C)c(=O)c3c(N(C)C)c(=O)n(C4CC4)cc23)cccc1C(F)(F)F
302

Form entry - test system: SOS1:KRAS (G12C) interaction (Homo sapiens (Human), UniProt Q07889); read-out: IC50; compound: Cc1c([C@@H](C)Nc2nn(C)c(=O)c3cc(=O)n([C@H]4C[C@H](n5ccnc5)C4)cc23)cccc1C(F)(F)F
61.9

So what IC50 did Cc1c([C@@H](C)Nc2nn(C)c(=O)c3c(N4CC[C@@H](N)C4)c(=O)n(C4CC4)cc23)cccc1C(F)(F)F get with SOS1:KRAS (G12C) interaction (Homo sapiens (Human), UniProt Q07889)?
284

Find the measured IC50: item C[C@@H](Nc1nn(C)c(=O)c2cc(=O)n([C@]3(C)CCOC3)cc12)c1cccc(C(F)F)c1F (single isomer, unassigned) , target or system SOS1:KRAS (G12C) interaction (Homo sapiens (Human), UniProt Q07889).
30.3

Entry C[C@@H](Nc1nn(C)c(=O)c2cc(=O)n([C@@]3(C(F)(F)F)CCNC3)cc12)c1cccc(C(F)F)c1F (single isomer, unassigned) , system SOS1:KRAS (G12C) interaction (Homo sapiens (Human), UniProt Q07889): what IC50 was measured?
29.2

Please provide the recorded IC50 for C[C@@H](Nc1nn(C)c(=O)c2cc(=O)n(C3(C(F)F)CCC3)cc12)c1cccc(C(F)F)c1F , tested on SOS1:KRAS (G12C) interaction (Homo sapiens (Human), UniProt Q07889).
32.4

Give IC50 (SOS1:KRAS (G12C) interaction (Homo sapiens (Human), UniProt Q07889)) of the following compound: C[C@@H](Nc1nn(C)c(=O)c2c(O[C@H]3C[C@H](F)C3)c(=O)n(C3(C(F)F)CC3)cc12)c1cccc(C(F)F)c1F
122

Please provide the recorded IC50 for C[C@@H](Nc1nn(C)c(=O)c2cc(=O)n(C3CCOCC3)cc12)c1cccc(C(F)(F)[C@@H]2CCCO2)c1F (single isomer, unassigned) , tested on SOS1:KRAS (G12C) interaction (Homo sapiens (Human), UniProt Q07889).
23.4

Record lookup: for SOS1:KRAS (G12C) interaction (Homo sapiens (Human), UniProt Q07889), what IC50 belongs to C[C@@H](Nc1nn(C)c(=O)c2cc(=O)n([C@@H]3CCCOC3)cc12)c1cccc(C(F)F)c1F (single isomer, unassigned) ?
160

API: value(readout= IC50, system= SOS1:KRAS (G12C) interaction (Homo sapiens (Human), UniProt Q07889), query= C[C@@H](Nc1nn(C)c(=O)c2cc(=O)n(C3(C(F)(F)F)COC3)cc12)c1cccc(C(F)F)c1F )
66.6

Recorded IC50 for C[C@@H](Nc1nn(C)c(=O)c2cc(=O)n([C@@H]3CC3(C)C)cc12)c1cccc(C(F)F)c1F (single isomer, unassigned) with SOS1:KRAS (G12C) interaction (Homo sapiens (Human), UniProt Q07889), please?
152

Identify the measured IC50 of C[C@@H](Nc1nn(C)c(=O)c2cc(=O)n(C3(C)CN(C(=O)C4CC4)C3)cc12)c1cccc(C(F)F)c1F for SOS1:KRAS (G12C) interaction (Homo sapiens (Human), UniProt Q07889).
5.5

Lab note: need IC50 for C[C@@H](Nc1nn(C)c(=O)c2cc(=O)n([C@H]3C[C@@H]3c3cncc(F)c3)cc12)c1cccc(C(F)F)c1F (single isomer, unassigned) on SOS1:KRAS (G12C) interaction (Homo sapiens (Human), UniProt Q07889), anyone have it?
60.8

Can you look up IC50 on SOS1:KRAS (G12C) interaction (Homo sapiens (Human), UniProt Q07889) for Cc1cc([C@H](C)Nc2nn(C)c(=O)c3cc(=O)n(C4CC4)cc23)cc2c1c(C#N)nn2C (single isomer, unassigned) ?
76200

Lab note: need IC50 for C[C@@H](Nc1nn(C)c(=O)c2cc(=O)n(C3(C(C)(F)F)CC3)cc12)c1cccc(C(F)F)c1F on SOS1:KRAS (G12C) interaction (Homo sapiens (Human), UniProt Q07889), anyone have it?
67.8
